Study System: PpD-KdpD (Pseudomonas putida, UniProt Q88J13)
Construct: C-terminal His6 tag (kept), pET vector, E. coli BL21(DE3), HisTrap purified
Sequence (Q88J13 1-405): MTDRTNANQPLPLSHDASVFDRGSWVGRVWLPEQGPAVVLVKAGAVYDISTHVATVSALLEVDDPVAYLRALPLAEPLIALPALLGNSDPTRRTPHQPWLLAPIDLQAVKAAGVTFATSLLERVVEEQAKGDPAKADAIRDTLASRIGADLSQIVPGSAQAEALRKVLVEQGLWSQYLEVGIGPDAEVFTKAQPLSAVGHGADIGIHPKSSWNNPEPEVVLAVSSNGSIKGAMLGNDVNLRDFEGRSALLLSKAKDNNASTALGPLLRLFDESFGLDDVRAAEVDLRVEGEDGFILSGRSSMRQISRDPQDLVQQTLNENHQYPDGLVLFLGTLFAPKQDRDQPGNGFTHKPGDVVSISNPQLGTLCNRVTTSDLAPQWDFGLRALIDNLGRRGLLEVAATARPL
Assay Summary: coupled assay with PpKGSADH, NADH at […] nm
Experimental Parameters: read-out: I50
Endpoint Name: IC50 (mM)
Numbers only, in mM.

Query string: Fill in IC50 for record O=C(O)[C@H](O)[C@@H](O)[C@H](O)CO [D-xylonate]
Result string: 75

These data points were gathered from paper PMC7374468.
